# assayProtocol: Drug levels in plasma and tissues after systemic administration
# Type: in vivo, mouse
# appliedConditions: mouse, plasma, ip, 20 mg
reportedEndpoint: Cmax (nM)
Express your answer in nM, writing the number without its unit.

Per the records, this compound ( Cc1c(C(=O)c2ccccc2)c(N)c(-c2ccccc2)n1Cc1ccc(Cl)cc1 ) has Cmax equal to 596
